# target: T1, hROR2-ECD-Twin-Strep (soluble human ROR2 extracellular domain fused to a Twin-Strep-tag) (Homo sapiens (Human)., UniProt Q01974)
# T1 construct: signal peptide in the construct; extracellular domain of human receptor tyrosine kinase-like orphan receptor 2 (ROR2), NP_004551.2, amino acids 1-403; Gene synthesis (GenScript), vector pCB14b; also called hROR2-Twin-Strep; human ROR2-ECD-Twin-Strep; not shown: Twin-Strep-tag, C-terminal, kept
# T1 sequence (Q01974 34-403): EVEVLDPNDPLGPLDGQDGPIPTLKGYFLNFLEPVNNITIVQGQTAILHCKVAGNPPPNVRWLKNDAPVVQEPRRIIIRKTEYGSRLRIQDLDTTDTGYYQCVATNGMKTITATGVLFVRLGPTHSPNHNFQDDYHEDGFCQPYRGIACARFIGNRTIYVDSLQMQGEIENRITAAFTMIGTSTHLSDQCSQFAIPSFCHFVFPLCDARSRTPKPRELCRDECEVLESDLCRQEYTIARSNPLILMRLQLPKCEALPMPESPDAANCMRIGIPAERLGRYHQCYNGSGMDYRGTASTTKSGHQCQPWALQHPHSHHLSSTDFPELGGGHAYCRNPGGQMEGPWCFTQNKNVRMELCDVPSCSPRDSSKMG
# method_summary: ELISA; MaxiSorp plates coated with 2 μg/ml antigen in 100 mM bicarbonate/carbonate buffer; purified monoclonal antibodies from 0.5-2 μg/ml in serial dilutions in PBS-T/1% BSA, 1 h at 37°C; detected with HRP-conjugated F(ab')2 anti-human Fcγ
# test_context: both partners purified
reported_metric: binding result

Read the entry GK-2G8 (antibody, V domains shown) VH: QVQLQESGGGVVQPGRSLRLSCAASGFTFRSYGMHWVRQAPGKGLEWVAIIWYDGSKKYYTDSVKGRFTISRDNSKNTLYLQMNSLRAEDTAVYYCARPGVAMTGLDLWGQGTLVTVSS VL: EIVMTQSPSTLSASVGDRVTITCRASQSISSWLAWYQQKPGKAPKLLIYKASSLESGVPSRFSGSGSGTEFTLTISSLQPDDFATYYCQQYNNYWTFGQGTKVDIK and write its reported binding result.
binds
